Data credit: paper PMC9709406

# Tested on: KYSE410 cells
# Assay Name: MTT assay, KYSE410
# Type: cell-based, human
# Measurement Setup: Homo sapiens, KYSE-410; MTT, 48 h, KYSE410, n = 5; read-out: IC50 48 h KYSE410

>  <Compound>
Cc1ccc(Cn2cc(-c3cccc(Nc4ncnc5cc6c(cc45)OCCOCCOCCO6)c3)nn2)cc1

>  <IC50>
> 50 µM

$$$$
>  <Compound>
Clc1cccc(-n2cc(-c3cccc(Nc4ncnc5cc6c(cc45)OCCOCCOCCO6)c3)nn2)c1

>  <IC50>
10.9 µM

$$$$
>  <Compound>
COc1ccccc1-n1cc(-c2cccc(Nc3ncnc4cc5c(cc34)OCCOCCOCCO5)c2)nn1

>  <IC50>
8.67 µM

$$$$
>  <Compound>
FC(F)(F)c1ccc(-n2cc(-c3cccc(Nc4ncnc5cc6c(cc45)OCCOCCOCCO6)c3)nn2)cc1

>  <IC50>
5.94 µM

$$$$
>  <Compound>
Fc1cccc(-n2cc(-c3cccc(Nc4ncnc5cc6c(cc45)OCCOCCOCCO6)c3)nn2)c1

>  <IC50>
48.6 µM

$$$$
>  <Compound>
Fc1ccc(-n2cc(-c3cccc(Nc4ncnc5cc6c(cc45)OCCOCCOCCO6)c3)nn2)cc1

>  <IC50>
> 50 µM

$$$$
>  <Compound>
C#Cc1cccc(Nc2ncnc3cc4c(cc23)OCCOCCOCCO4)c1 [icotinib, reference compound]

>  <IC50>
> 50 µM

$$$$
>  <Compound>
Brc1ccccc1Cn1cc(-c2cccc(Nc3ncnc4cc5c(cc34)OCCOCCOCCO5)c2)nn1

>  <IC50>
19.2 µM

$$$$
>  <Compound>
c1ccc(-n2cc(-c3cccc(Nc4ncnc5cc6c(cc45)OCCOCCOCCO6)c3)nn2)cc1

>  <IC50>
> 50 µM

$$$$
>  <Compound>
Fc1ccc(CCn2cc(-c3cccc(Nc4ncnc5cc6c(cc45)OCCOCCOCCO6)c3)nn2)cc1

>  <IC50>
21.6 µM

$$$$
>  <Compound>
Brc1cccc(Cn2cc(-c3cccc(Nc4ncnc5cc6c(cc45)OCCOCCOCCO6)c3)nn2)c1

>  <IC50>
> 50 µM

$$$$
>  <Compound>
Cc1ccccc1Cn1cc(-c2cccc(Nc3ncnc4cc5c(cc34)OCCOCCOCCO5)c2)nn1

>  <IC50>
8.23 µM

$$$$
>  <Compound>
Ic1ccccc1-n1cc(-c2cccc(Nc3ncnc4cc5c(cc34)OCCOCCOCCO5)c2)nn1

>  <IC50>
> 50 µM

$$$$
>  <Compound>
Fc1ccccc1Cn1cc(-c2cccc(Nc3ncnc4cc5c(cc34)OCCOCCOCCO5)c2)nn1

>  <IC50>
> 50 µM

$$$$
>  <Compound>
c1ccc(Cn2cc(-c3cccc(Nc4ncnc5cc6c(cc45)OCCOCCOCCO6)c3)nn2)cc1

>  <IC50>
9.23 µM

$$$$
>  <Compound>
COc1cccc(Cn2cc(-c3cccc(Nc4ncnc5cc6c(cc45)OCCOCCOCCO6)c3)nn2)c1

>  <IC50>
> 50 µM

$$$$
